target: T1, HCV Core 134-171-TT Peptide (hepatitis C virus (HCV-1 numbering) …); assay: SPR, captured mAb, peptide analyte
T1 construct: also called ALRZ-9 peptide
Assignment: determine reported kon for the given binders.
Give bare numbers, in M⁻¹ s⁻¹.

# BINDER, kon [M⁻¹ s⁻¹]
records = [
    ("HCV 208B-1096 (antibody, V domains shown) VH: QVQLQQSGAGLAKPGASVKMSCKASGYTFTANKMHWAKQRPGQGLEWIGYIDPSSGYTEYNHKIQYKATLTADTSSSTAYMQLSTLTFEDSAVYYCTNFAYWGQGTLVTVSA VL: DIVMTQTPLTLSVTIGQPASISCKSSQSLLFTNGKTYLNWFLQRPGQSPKRLIYLLSKLDSGVPDRFSGSGSGTDFTLKISRVEAEDLGVYYCLQSTYFPLTFGAGTKLELKR", "1.3e+06"),
]

Would you kindly look at the next entry?
input: Given the entry HCV 208A-1064 (antibody, V domains shown) VH: EVQLQQSGPELVKPGASVKISCKTSGYTFTEYAMHWMKQSHGKSLEWIGGINPTNGDTIYNQKFKDKAKLTVDRSSSTAYMELRSLTSDDSALFYCARRELDYFASWGQGTTLTVSS VL: DIVLTQSPASLIVSLGQTATISCRASQSVSTSRFSYLHWIQQKPGQPPKLLIKYASNLESGVPVRFSGSGSGTDFTLNIHPVEEEDTATYFCQHSWEFPFTFGSGTKLKIKR , report its measured kon.
output: 1.6e+06
